Hello, the source for this data is paper PMC10952582, in case you need it.

# target under test: α1β3γ2L GABAAR (Mus musculus, UniProt P22723+P62812+P63080)
# Construct: expressed in transfected cells; host or cells: HEK 293 cells (ATCC CRL-1573)
# Sequence (P62812 28-455): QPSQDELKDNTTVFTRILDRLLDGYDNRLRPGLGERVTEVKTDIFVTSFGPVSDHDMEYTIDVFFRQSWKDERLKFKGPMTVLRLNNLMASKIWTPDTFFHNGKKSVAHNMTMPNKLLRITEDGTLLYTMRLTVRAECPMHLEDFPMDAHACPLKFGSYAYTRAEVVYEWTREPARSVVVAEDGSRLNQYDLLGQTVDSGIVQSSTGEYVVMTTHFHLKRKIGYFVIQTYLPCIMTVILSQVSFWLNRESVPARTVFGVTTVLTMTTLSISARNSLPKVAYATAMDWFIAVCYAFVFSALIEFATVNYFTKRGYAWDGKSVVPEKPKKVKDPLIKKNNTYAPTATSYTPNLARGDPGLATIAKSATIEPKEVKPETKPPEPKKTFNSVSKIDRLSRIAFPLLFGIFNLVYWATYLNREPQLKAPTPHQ
# Sequence (P63080 26-473 partner): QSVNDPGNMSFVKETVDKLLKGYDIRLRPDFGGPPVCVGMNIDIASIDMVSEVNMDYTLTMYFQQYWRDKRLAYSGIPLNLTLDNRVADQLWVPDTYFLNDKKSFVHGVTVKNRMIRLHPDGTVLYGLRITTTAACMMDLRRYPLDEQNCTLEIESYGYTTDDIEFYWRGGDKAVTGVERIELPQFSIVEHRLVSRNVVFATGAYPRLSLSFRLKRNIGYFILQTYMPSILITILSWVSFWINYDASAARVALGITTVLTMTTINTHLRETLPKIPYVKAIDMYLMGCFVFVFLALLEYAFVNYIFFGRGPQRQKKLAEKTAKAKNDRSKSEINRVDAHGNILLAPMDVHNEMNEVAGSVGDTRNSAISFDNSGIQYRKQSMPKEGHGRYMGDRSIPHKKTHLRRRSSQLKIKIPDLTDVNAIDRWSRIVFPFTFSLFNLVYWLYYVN
# Sequence (P22723 39-474 partner): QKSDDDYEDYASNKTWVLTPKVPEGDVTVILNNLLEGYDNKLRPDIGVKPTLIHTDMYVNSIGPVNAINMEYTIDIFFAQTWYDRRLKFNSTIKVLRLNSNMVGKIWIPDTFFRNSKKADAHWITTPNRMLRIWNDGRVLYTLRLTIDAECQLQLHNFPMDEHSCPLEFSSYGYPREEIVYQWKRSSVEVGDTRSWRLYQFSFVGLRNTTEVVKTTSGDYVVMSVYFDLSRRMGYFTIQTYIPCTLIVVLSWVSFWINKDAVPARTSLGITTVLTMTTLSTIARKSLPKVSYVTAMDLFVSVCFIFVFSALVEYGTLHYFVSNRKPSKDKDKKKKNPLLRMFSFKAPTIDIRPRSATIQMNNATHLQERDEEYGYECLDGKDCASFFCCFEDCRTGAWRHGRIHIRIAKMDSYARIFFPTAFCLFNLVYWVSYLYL
# assay: Whole-cell voltage-clamp electrophysiology, wild-type α1β3γ2L GABAARs expressed in HEK cells
# Format: cell-based, murine
# settings: Peak inhibition (pIC50), peak current evoked by 30 μM GABA; analogue pre-applied 10–12 s and co-applied
measure name: IC50 (µM)
Give a bare numeral; the unit µM is implied.

Example molecules with recorded IC50:
{"molecule": "C[C@]12CC[C@H](OS(=O)(=O)O)CC1=CCC1C2CC[C@@]2(C)C1CC[C@@H]2C(=O)Cn1cccn1 (stereo partly shown)", "unit abbreviation": "µM", "data value": 220}
{"molecule": "CC12CCC(OS(=O)(=O)O)CC1=CCC1C2CCC2(C)C(C(=O)Cn3cccc3)CCC12 (stereo not shown)", "unit abbreviation": "µM", "data value": 33.3}

Turning now to a further molecule:
# assay system α1β3γ2L GABAAR (Mus musculus, UniProt P22723+P62812+P63080): give IC50 of CC12CCC(OS(=O)(=O)O)CC1=CCC1C2CCC2(C)C(C(=O)CBr)CCC12 (stereo not shown)
2.65
